Values from patent US20150086555A1

# Trimeric HA Binding: RLU listing for each entry below
Target Or Test System: recombinant soluble homotrimeric HA of A/Netherlands/219/03 (H7N7) (Influenza A virus A/Netherlands/219/03(H7N7))
Protocol Summary: trimeric HA microarray, transfection supernatant set 5
Test Parameters: remark: other sources report otherwise
Please give a number only; it is taken to be in RLU.

Q) What does the record list as Trimeric HA Binding: RLU for TCN-538 (3206_O17) (antibody, V domains shown) VH: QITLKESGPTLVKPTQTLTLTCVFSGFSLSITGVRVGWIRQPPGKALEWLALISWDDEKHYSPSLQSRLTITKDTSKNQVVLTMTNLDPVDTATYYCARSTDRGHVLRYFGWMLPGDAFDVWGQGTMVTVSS VL: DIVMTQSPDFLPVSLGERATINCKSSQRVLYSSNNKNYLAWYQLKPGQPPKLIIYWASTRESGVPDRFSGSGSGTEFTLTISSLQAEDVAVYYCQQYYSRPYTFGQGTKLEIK ?
A) 4370

Q) Name the recorded Trimeric HA Binding: RLU for TCN-539 (5056_A08) (antibody, V domains shown) VH: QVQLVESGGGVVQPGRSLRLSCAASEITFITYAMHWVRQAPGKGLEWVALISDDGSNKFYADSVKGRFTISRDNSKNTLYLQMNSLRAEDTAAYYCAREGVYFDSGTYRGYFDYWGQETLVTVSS VL: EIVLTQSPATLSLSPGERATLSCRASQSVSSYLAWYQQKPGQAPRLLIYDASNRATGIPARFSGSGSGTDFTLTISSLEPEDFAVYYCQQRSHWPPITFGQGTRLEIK .
A) 15700

Q) Given the binder TCN-544 (5082_A19) (antibody, V domains shown) VH: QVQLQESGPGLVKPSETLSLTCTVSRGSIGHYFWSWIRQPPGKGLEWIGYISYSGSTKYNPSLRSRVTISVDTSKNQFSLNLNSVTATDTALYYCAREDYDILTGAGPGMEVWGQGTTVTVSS VL: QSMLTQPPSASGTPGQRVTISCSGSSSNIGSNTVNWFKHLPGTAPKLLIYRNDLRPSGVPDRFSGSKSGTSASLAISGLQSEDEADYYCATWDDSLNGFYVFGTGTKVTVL , what is its reported Trimeric HA Binding: RLU?
A) 4650

Q) So what's the measured Trimeric HA Binding: RLU for this one? TCN-540 (5060_F05) (antibody, V domains shown) VH: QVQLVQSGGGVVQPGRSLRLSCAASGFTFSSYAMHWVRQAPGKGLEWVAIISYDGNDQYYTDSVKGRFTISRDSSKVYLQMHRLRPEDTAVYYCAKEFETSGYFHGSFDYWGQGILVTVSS VL: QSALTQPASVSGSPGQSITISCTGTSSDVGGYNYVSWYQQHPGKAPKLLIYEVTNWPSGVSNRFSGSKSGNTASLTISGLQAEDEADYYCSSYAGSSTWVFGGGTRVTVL
A) 4390
